- Tested on: ENR+CD organoids (ISC to Paneth cell differentiation)
- Assay Text: Primary screen: CCh-stimulated lysozyme secretion LYZ.S, 2.5-D 384-well ENR+CD organoid differentiation
- Type: cell-based, mouse
- Applied Conditions: primary screen, dose 10.00 uM
Recorded Dose.FC.LYZ.S, one value per entry.

>  <Compound>
COc1ccc(C(=O)N2CCCC2=O)cc1 [Aniracetam]

>  <Unit Text>
log2 fold change

>  <Dose.FC.LYZ.S>
−0.028

$$$$
>  <Compound>
C[C@]1(c2nc3c(C(N)=O)cccc3[nH]2)CCCN1 [Veliparib (ABT-888)]

>  <Unit Text>
log2 fold change

>  <Dose.FC.LYZ.S>
−0.136

$$$$
>  <Compound>
COc1ccc(-n2nc(C(N)=O)c3c2C(=O)N(c2ccc(N4CCCCC4=O)cc2)CC3)cc1 [Apixaban]

>  <Unit Text>
log2 fold change

>  <Dose.FC.LYZ.S>
−0.096

$$$$
>  <Compound>
COCCOc1ccc2c(c1)ncn2-c1ccc2cccc(N3CCC(N)CC3)c2n1 [CP-673451]

>  <Unit Text>
log2 fold change

>  <Dose.FC.LYZ.S>
−0.147

$$$$
>  <Compound>
O=C(Nc1cccc(Nc2ncc(Br)c(NCCc3cnc[nH]3)n2)c1)N1CCCC1 [BX-912]

>  <Unit Text>
log2 fold change

>  <Dose.FC.LYZ.S>
−0.272

$$$$
>  <Compound>
CC(/C=C/C(=O)NO)=C\[C@@H](C)C(=O)c1ccc(N(C)C)cc1 [Trichostatin A (TSA)]

>  <Unit Text>
log2 fold change

>  <Dose.FC.LYZ.S>
−0.202

$$$$
>  <Compound>
CCOC(=O)C1=C(COCCN)NC(C)=C(C(=O)OC)C1c1ccccc1Cl (centres unmarked) [Amlodipine]

>  <Unit Text>
log2 fold change

>  <Dose.FC.LYZ.S>
−0.155

$$$$
>  <Compound>
CC(C)(C)c1cc(/C=C(\C#N)C(N)=S)cc(C(C)(C)C)c1O [Tyrphostin AG 879]

>  <Unit Text>
log2 fold change

>  <Dose.FC.LYZ.S>
−0.123

$$$$
>  <Compound>
CN(C)CCCCC(=O)Nc1ccc(NC(=S)NC(=O)c2ccc(C(C)(C)C)cc2)cc1 [Tenovin-6]

>  <Unit Text>
log2 fold change

>  <Dose.FC.LYZ.S>
−0.344

$$$$
>  <Compound>
CN(C)Cc1ccc(-c2nc3cccc4c3n2CCNC4=O)cc1 [AG-14361]

>  <Unit Text>
log2 fold change

>  <Dose.FC.LYZ.S>
−0.189

$$$$
>  <Compound>
CC(=O)Nc1cccc2c1c(Sc1ccc(Cl)cc1)c(C)n2CC(=O)O [AZD1981]

>  <Unit Text>
log2 fold change

>  <Dose.FC.LYZ.S>
0.070

$$$$
>  <Compound>
COc1cc(CCc2cc(NC(=O)c3ccc(N4CC(C)NC(C)C4)cc3)n[nH]2)cc(OC)c1 (centres unmarked) [AZD4547]

>  <Unit Text>
log2 fold change

>  <Dose.FC.LYZ.S>
−0.049

$$$$
>  <Compound>
CN(C)C(=O)Nc1cccc(-c2ccc(N(C)C)cc2)c1 [Atglistatin]

>  <Unit Text>
log2 fold change

>  <Dose.FC.LYZ.S>
0.012

$$$$
>  <Compound>
COc1ccc(C[C@@H](C)NC[C@H](O)c2ccc(O)c(NC=O)c2)cc1.COc1ccc(C[C@@H](C)NC[C@H](O)c2ccc(O)c(NC=O)c2)cc1.O=C(O)/C=C/C(=O)O [Formoterol Hemifumarate]

>  <Unit Text>
log2 fold change

>  <Dose.FC.LYZ.S>
0.011

$$$$
>  <Compound>
Cn1cc(C2=C(c3cn(C4CCN(Cc5ccccn5)CC4)c4ccccc34)C(=O)NC2=O)c2ccccc21 [Enzastaurin (LY317615)]

>  <Unit Text>
log2 fold change

>  <Dose.FC.LYZ.S>
−0.226

$$$$
>  <Compound>
CC(C)n1c(/C=C/C(O)CC(O)CC(=O)O)c(-c2ccc(F)cc2)c2ccccc21 (centres unmarked) [Fluvastatin Sodium]

>  <Unit Text>
log2 fold change

>  <Dose.FC.LYZ.S>
−0.267

$$$$
>  <Compound>
O=c1cc(-c2ccc(O)cc2)oc2cc(O)cc(O)c12 [Apigenin]

>  <Unit Text>
log2 fold change

>  <Dose.FC.LYZ.S>
0.098

$$$$
